- run.description: Pharmacokinetics: plasma, brain, CSF
- particulars: male, CD-1, mouse, brain, intraperitoneal, 0.2 mg/kg
result.type: concentration at 60 min (ng/g)
Write the number in ng/g without appending the unit.

Could you share which concentration at 60 min value was measured for Cc1cc(C(=O)NC(C)(c2ccco2)c2ccco2)nn1-c1cccc(C(F)(F)F)c1 [‘4936] ?
26.1

For COC(=O)[C@@](C)(NC(=O)c1cc(C)n(-c2cccc(C(F)(F)F)c2)n1)c1cccs1 [‘1350] then?
44.1

---

- run.description: Pharmacokinetics: plasma, brain, CSF
- particulars: male, CD-1, mouse, brain, intraperitoneal, 0.2 mg/kg
result.type: concentration at 5 min (ng/g)
Write the number in ng/g without appending the unit.

query.smiles | concentration at 5 min, ng/g
COC(=O)[C@@](C)(NC(=O)c1cc(C)n(-c2cccc(C(F)(F)F)c2)n1)c1cccs1 | 8.24

Could you share which concentration at 5 min value was measured for Cc1cc(C(=O)NC(C)(c2ccco2)c2ccco2)nn1-c1cccc(C(F)(F)F)c1 ?
2.39
